# system name: T1, human LAG3 (form used in Octet, Biacore and HDX-MS not given) (human, UniProt P18627 23-450, limits assumed)
# T1 sequence (looked up): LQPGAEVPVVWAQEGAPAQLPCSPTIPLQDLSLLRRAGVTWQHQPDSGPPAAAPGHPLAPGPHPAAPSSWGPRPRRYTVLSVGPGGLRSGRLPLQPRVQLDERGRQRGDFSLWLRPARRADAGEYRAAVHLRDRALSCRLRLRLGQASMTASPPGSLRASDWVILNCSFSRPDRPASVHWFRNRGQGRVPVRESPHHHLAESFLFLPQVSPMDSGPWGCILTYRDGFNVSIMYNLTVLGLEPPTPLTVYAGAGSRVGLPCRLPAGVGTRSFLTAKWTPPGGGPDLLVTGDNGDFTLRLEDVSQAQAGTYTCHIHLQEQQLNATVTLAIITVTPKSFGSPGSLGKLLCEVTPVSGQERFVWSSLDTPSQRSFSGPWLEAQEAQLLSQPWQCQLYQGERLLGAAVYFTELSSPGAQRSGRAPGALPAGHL
# test: BLI (Octet)
measured attribute: kon (M⁻¹ s⁻¹)
Form entry: value (M⁻¹ s⁻¹) — number only.

// known answers, use as guide
hu023.09 (antibody, human IgG4, V domains shown, humanized from 023c) VH: QVQLVQSGPEVKKPGASVKVSCKASGYTFTESPMNWVRQAPGQGFEWMGIIYTDTGEPTYAEEFKGRVTMTLDTSTSTVYMELSSLRSEDTAVYFCASDYGSILYWYFDVWGQGTLVTVSS VL: DIQMTQSPSSLSTSVGDRVTITCKASQDVSTAVAWYQQKPGKSPKLLIYSASYRYTGVPSRFSGSGSGTDFTFTISSVQPEDFATYYCQQHYNAPPTFGQGTKLEIK :: 290000
hu023.11 (antibody, human IgG4, V domains shown, humanized from 023c) VH: QVQLVQSGPELKKPGASVKVSCKASGYTFTESPMNWVRQAPGQGFEWMGIIYTDTGEPTYAEEFKGRFVFSLDTSVSTAYLQISSLKAEDTAVYFCVSDYGSILYWYFDVWGQGTLVTVSS VL: DIQMTQSPSSLSASVGDRVTITCKASQDVSTAVAWYQQKPGKSPKLLIYSASYRYTGVPSRFSGSGSGTDFTFTISSLQPEDFATYYCQQHYNAPPTFGQGTKLEIK :: 303000
hu023.13 (antibody, human IgG4, V domains shown, humanized from 023c) VH: QIQLVQSGPELKKPGASVKISCKASGYTFTESPMNWVRQAPGQGFEWMGIIYTDTGEPTYAEEFKGRFVFSLDTSVSTAYLQISSLKAEDTAVYFCVSDYGSILYWYFDVWGQGTLVTVSS VL: DIQMTQSPSSLSASVGDRVTITCKASQDVSTAVAWYQQKPGKAPKLLIYSASYRYTGVPSRFSGSGSGTDFTLTISSLQPEDFATYYCQQHYNAPPTFGQGTKLEIK :: 303000
hu023.07 (antibody, human IgG4, V domains shown, humanized from 023c) VH: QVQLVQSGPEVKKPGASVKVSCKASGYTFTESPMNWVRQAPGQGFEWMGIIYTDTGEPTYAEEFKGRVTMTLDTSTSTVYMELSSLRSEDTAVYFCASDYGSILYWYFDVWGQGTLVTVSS VL: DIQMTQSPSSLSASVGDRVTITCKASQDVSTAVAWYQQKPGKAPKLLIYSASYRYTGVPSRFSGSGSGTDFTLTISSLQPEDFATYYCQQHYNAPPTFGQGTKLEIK :: 259000

// switching to the query binder
Data request, read-out kon, for hu023.12 (antibody, human IgG4, V domains shown, humanized from 023c) VH: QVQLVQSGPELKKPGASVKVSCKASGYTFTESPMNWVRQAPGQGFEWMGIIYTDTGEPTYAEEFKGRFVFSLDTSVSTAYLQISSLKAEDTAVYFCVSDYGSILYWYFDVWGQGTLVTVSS VL: DIQMTQSPSSLSTSVGDRVTITCKASQDVSTAVAWYQQKPGKSPKLLIYSASYRYTGVPSRFSGSGSGTDFTFTISSVQPEDFATYYCQQHYNAPPTFGQGTKLEIK
296000

Data provenance is patent US20250313625A1.
